Test system: HepG2
test_name: cytotoxicity call (relative viability < 0.9)
experimental_parameters: 10 µM
The whole screen tested about 39,000 compounds, of which about 3,300 (8.5%) were called active. The sample holds actives, similar compounds and a random draw of the others, so the mix is not that of the screen.
quantity: cytotoxicity call

COc1ccc(COCC23Oc4ccccc4[C@H]([C@H]2CO)n2c(c4ccccc4c(-c4ccccc4)c2=O)N3C)cc1 ... active
C[N+]1(C)C[C@@H](O)C[C@H]1C(=O)O ... inactive
COc1ccc(COCC23Oc4ccccc4[C@H]([C@H]2CO)n2c(c4c(c(C(C)=O)c2=O)C(=O)N(C)C4=O)N3C)cc1 ... inactive
COc1ccc(COCC23Oc4ccccc4[C@H]([C@H]2COC(=O)c2ccccc2)n2c(c4ccccc4c(-c4ccccc4)c2=O)N3C)cc1 ... active
COC(=O)c1cc(-c2ccccc2)c(=O)n2c1N(C)[C@@]1(COCc3ccc(OC)cc3)Oc3ccccc3[C@@H]2[C@H]1CO[Si](C)(C)C(C)(C)C ... inactive

Query: Recall the recorded cytotoxicity call for O=C(C[C@H]1CC[C@@H]2[C@H](COC[C@H](O)CN2C(=O)Nc2ccc(F)cc2)O1)NCCCN1CCOCC1 with HepG2 and state it.
Result: inactive

Query: Recall the recorded cytotoxicity call for N#CCSc1n[nH]c(=O)[nH]c1=O with HepG2 and state it.
Result: inactive

Query: Recall the recorded cytotoxicity call for C[C@@H](O)[C@H](N)C(=O)N[C@@H](CCCCN)C(=O)N1CCC[C@H]1C(=O)N[C@@H](CCCNC(=N)N)C(=O)O with HepG2 and state it.
Result: inactive

Query: Recall the recorded cytotoxicity call for C[C@@H]1C[C@H]1C(=O)O with HepG2 and state it.
Result: inactive

Query: Recall the recorded cytotoxicity call for Cc1noc(C)c1NC(=O)N(C)C[C@@H]1OCCCC[C@@H](C)Oc2ccc(NS(=O)(=O)c3ccc(F)cc3)cc2C(=O)N([C@H](C)CO)C[C@@H]1C with HepG2 and state it.
Result: inactive
